Ref: patent US20260184782A1

System: T1, recombinant human TIGIT (human, UniProt Q495A1 22-141, limits assumed)
T1 construct: recombinant human TIGIT used in Carterra SPR; also called hTIGIT
T1 sequence (looked up): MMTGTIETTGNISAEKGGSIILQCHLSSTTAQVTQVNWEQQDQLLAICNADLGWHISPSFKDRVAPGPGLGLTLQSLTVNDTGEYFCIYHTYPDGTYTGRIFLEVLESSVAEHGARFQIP
Assay procedure: SPR Carterra, average
Entries and their measured log10 of kon follow.
Parameter value (number): base-10 log of kon in M⁻¹ s⁻¹.

Example results:
binder="TIGIT-SC66 (Fc fusion, VHH-Fc fusion in assay) VHH: EVQLVESGGGLVQPGGSLRLSCAASGTTFSSAAMGWFRQAPGKEREWVASVLRGGYTWYADSVKGRFTISADNSKNTAYLQMNSLKPEDTAVYYCVTDPRQWLGHDYWGQGTLVTVSS" assay_metric="log10 of kon" val=4.47
binder="TIGIT-SC175 (Fc fusion, VHH-Fc fusion in assay) VHH: EVQLVESGGGLVQPGGSLRLSCAASGNTFSGGFMGWFRQAPGKEREWVASVLRGGYTWYADSVKGRFTISADNSKNTAYLQMNSLKPEDTAVYYCTTDALRFLEWPWWGQGTLVTVSS" assay_metric="log10 of kon" val=5.00
binder="TIGIT-SC182 (Fc fusion, VHH-Fc fusion in assay) VHH: EVQLVESGGGLVQPGGSLRLSCAASGFTFSSSSMGWFRQAPGKEREFVAAINWSGGSTSYADSVKGRFTISADNSKNTAYLQMNSPKPEDTAVYYCAKDRSYSFDYWGQGTLVTVSS" assay_metric="log10 of kon" val=5.08
binder="TIGIT-SC186 (Fc fusion, VHH-Fc fusion in assay) VHH: EVQLVESGGGLVQPGGSLRLSCAASGNTFSGGFMGWFRQAPGKEREYVASVLRGGYTWYADSVKGRFTISADNSKNTTYLQMNSLKPEDTAVYYCTTDRGYNWNYDWGQGTLVTVSS" assay_metric="log10 of kon" val=4.99
binder="TIGIT-SC76 (Fc fusion, VHH-Fc fusion in assay) VHH: EVQLVESGGGLVQPGGSLRLSCAASGFTFSDYAMGWFRQAPGKERELVARIGHDGSTDYADSVKGRFTISADNSKNTAYLQMNSLKPEDTAVYYCLGGLDPWGQGTLVTVSS" assay_metric="log10 of kon" val=5.97
binder="TIGIT-SC133 (Fc fusion, VHH-Fc fusion in assay) VHH: EVQLVESGGGLVQPGGSLRLSCAASGFTLENNMMGWFRQAPGKEREFVAAISASGTLRAYADSVKGRFTISADNSKNTAYLQMNSLKPEDTAVYYCACGRVSGAFIYFDYWGQGTLVTVSS" assay_metric="log10 of kon" val=5.20

Query :: I am curious: what log10 of kon value has been reported for TIGIT-SC184 (Fc fusion, VHH-Fc fusion in assay) VHH: EVQLVESGGGLVQPGGSLRLSCAASGFTFSPSWMGWFRQAPGKEREWVASVLRGGYTWYADSVKGRFTISADNSKNTAYLQMNSLKPEDTAVYYCTTDRGYNWNYDWGQGTLVTVSS ?
Result :: 6.05

Query :: Repeat for the following binder: TIGIT-SC40 (Fc fusion, VHH-Fc fusion in assay) VHH: EVQLVESGGGLVQPGGSLRLSCAASGFSFDRWAMGWFRQAPGKERELVARISWNGGSTYYADSVKGRFTISADNSKNTAYLQMNSLKPEDTAVYYCARDDGWLQFMHWGQGTLVTVSS
Result :: 5.14
